# target_or_system: CDK2/Cyclin E complex (Homo sapiens, UniProt P24941)
# experiment_summary: CDK2/Cyclin E fluorescence-based microfluidic mobility shift assay (CDK2 Biochemical Caliper Assay)
# conditions: read-out: Biochemical CDK2/CyclinE Caliper IC50
The following compounds are listed with their measured IC50 values.

>>> print(df.to_string())
                                   compound    measured_result
0  COCc1cc(C(=O)Nc2cc([C@H]3CC[C@@H](c4ccc(C(C)C)cn4)C3)[nH]n2)n(C)n1 (single isomer, unassigned) [Example 552]  1000 to 100000 nM
1  Cc1cc(CC(=O)Nc2cc([C@@H]3CC[C@H](Oc4nnccc4C)C3)[nH]n2)on1 (single isomer, unassigned) [Example 120]           ≤ 100 nM
2  COCc1cc(C(=O)Nc2cc([C@H]3CC[C@@H](Oc4nscc4C4CC4)C3)[nH]n2)n(C)n1 (single isomer, unassigned) [Example 414]           ≤ 100 nM
3  COCc1cc(C(=O)Nc2cc([C@@H]3CC[C@H](Oc4nnccc4C(C)C)C3)[nH]n2)n(C)n1 (single isomer, unassigned) [Example 411]           ≤ 100 nM
4  Cn1nc(OCC(F)(F)F)cc1C(=O)Nc1cc([C@@H]2C[C@H](OC(=O)NC34CC(C3)C4)CO2)[nH]n1 [Example 908]           ≤ 100 nM

Quote IC50 reported for COCc1cc2c(Nc3cc([C@@H]4C[C@H](OC(=O)N[C@H](C)C5CC5)CO4)[nH]n3)nccn2n1 [Example 765] please.
≤ 100 nM

====

# target_or_system: CDK2/Cyclin E complex (Homo sapiens, UniProt P24941)
# experiment_summary: CDK2/Cyclin E fluorescence-based microfluidic mobility shift assay (CDK2 Biochemical Caliper Assay)
# conditions: read-out: Biochemical CDK2/CyclinE Caliper IC50
measurement_kind: IC50

Some entries whose results are on file:
                                   compound  measurement_kind  measured_result
0  C[C@H]1CC[C@H](C)N1C(=O)OC[C@H]1C[C@@H](c2cc(Nc3ccc4c(n3)C(C)(C)NC4=O)n[nH]2)C1 (racemic)              IC50         ≤ 100 nM
1  COCC1(NC(=O)O[C@@H]2CO[C@H](c3cc(NC(=O)c4cc(COC(F)(F)F)nn4C)n[nH]3)C2)CC1              IC50         ≤ 100 nM

Please turn your attention to the following entry.
Quote IC50 reported for c1cc2ncsc2c(Nc2cc([C@H]3CC[C@@H](Oc4nscc4C4CC4)C3)[nH]n2)n1 (single isomer, unassigned) please.
≤ 100 nM

====

The following compounds are listed with their measured pIC50 values.
# target_or_system: CDK2/Cyclin E complex (Homo sapiens)
# experiment_summary: CDK2/Cyclin E fluorescence-based microfluidic mobility shift assay (CDK2 Biochemical Caliper Assay)
# conditions: read-out: Biochemical CDK2/CyclinE Caliper IC50
pIC50: −log10 of the molar value.

Some entries whose results are on file:
>>> df
                                   compound  measurement_kind  measured_result
0  Cn1nc(OCC(F)(F)F)cc1C(=O)Nc1cc([C@H]2C[C@@H](OC(=O)NC34CC(C3)C4)CO2)[nH]n1             pIC50           ≥ 7.00
1  COCc1cc(C(=O)Nc2cc([C@@H]3CC[C@@H](c4ccc(C(C)C)cn4)C3)[nH]n2)n(C)n1 (racemic)             pIC50     4.00 to 6.00
2  CC[C@H](C)NC(=O)O[C@H]1CO[C@@H](c2cc(Nc3ccc4c(n3)C(C)(C)NC4=O)n[nH]2)C1             pIC50           ≥ 7.00
3  CNS(=O)(=O)N[C@@H]1CC[C@H](c2cc(NC(=O)Cc3cc(C)no3)n[nH]2)C1 (single isomer, unassigned)             pIC50     4.00 to 6.00

Quote pIC50 reported for Cc1cc2ncnc(Nc3cc(C4CCCC4)[nH]n3)c2[nH]1 please.
4.00 to 6.00

Quote pIC50 reported for COCc1cc2c(Nc3cc([C@H]4C[C@@H](COc5cccnc5)C4)[nH]n3)nccn2n1 please.
6.00 to 6.60

Quote pIC50 reported for COCc1cc(C(=O)Nc2cc([C@H]3CC[C@H](c4ccc(C)nn4)C3)[nH]n2)n(C)n1 (single isomer, unassigned) please.
4.00 to 6.00

====

# target_or_system: CDK2/Cyclin E complex (Homo sapiens, UniProt P24941)
# experiment_summary: CDK2/Cyclin E fluorescence-based microfluidic mobility shift assay (CDK2 Biochemical Caliper Assay)
# conditions: read-out: Biochemical CDK2/CyclinE Caliper IC50
The following compounds are listed with their measured IC50 values.

Some entries whose results are on file:
In [3]: df
Out[3]:
                                   compound  measurement_kind    measured_result
0  c1cc(Nc2cc(C3CCCC3)[nH]n2)n2ccnc2n1 [Example 837]              IC50  1000 to 100000 nM
1  COCc1cc(C(=O)Nc2cc([C@H]3C[C@@H](COc4[nH]ncc4C(C)(C)C)C3)[nH]n2)n(C)n1 [Example 691]              IC50           ≤ 100 nM
2  Cc1cc(CC(=O)Nc2cc([C@H]3CC[C@@H](Cc4nncn4C(C)C)C3)[nH]n2)on1 (single isomer, unassigned) [Example 370]              IC50  1000 to 100000 nM

Enter recorded IC50 with CDK2/Cyclin E complex (Homo sapiens, UniProt P24941) for CC(=O)Nc1cc([C@H]2CC[C@@H](Oc3nscc3C3CC3)C2)[nH]n1 (single isomer, unassigned) [Example 421] here.
≤ 100 nM

Enter recorded IC50 with CDK2/Cyclin E complex (Homo sapiens, UniProt P24941) for CC(C)c1ccnnc1OC[C@H]1C[C@@H](c2cc(Nc3nccn4nccc34)n[nH]2)C1 [Example 488] here.
≤ 100 nM

Enter recorded IC50 with CDK2/Cyclin E complex (Homo sapiens, UniProt P24941) for Cn1ncc2c(Nc3cc([C@H]4C[C@@H](OC(=O)NC5(C)CC5)CO4)[nH]n3)nccc21 [Example 747] here.
250 to 1000 nM

Enter recorded IC50 with CDK2/Cyclin E complex (Homo sapiens, UniProt P24941) for COCc1cc2c(Nc3cc([C@H]4C[C@@H](OC(=O)NCCC5CCOCC5)CO4)[nH]n3)nccn2n1 [Example 694] here.
1000 to 100000 nM

====

The following compounds are listed with their measured IC50 values.
# target_or_system: CDK2/Cyclin E complex (Homo sapiens, UniProt P24941)
# experiment_summary: CDK2/Cyclin E fluorescence-based microfluidic mobility shift assay (CDK2 Biochemical Caliper Assay)
# conditions: read-out: Biochemical CDK2/CyclinE Caliper IC50

Some entries whose results are on file:
In [3]: df
Out[3]:
                                   compound    measured_result
0  Cc1cc(CC(=O)Nc2cc([C@H]3C[C@H](OC(=O)NC4(C)CC4)CO3)[nH]n2)on1 (single isomer, unassigned)  1000 to 100000 nM
1  COCc1cc2c(Nc3cc([C@H]4C[C@@H](COc5cn[nH]c5C(C)C)C4)[nH]n3)nccn2n1           ≤ 100 nM

Please turn your attention to the following entry.
Quote IC50 reported for CC(C)c1[nH]ncc1O[C@@H]1CO[C@H](c2cc(Nc3nccn4nccc34)n[nH]2)C1 (single isomer, unassigned) please.
1000 to 100000 nM

====

# target_or_system: CDK2/Cyclin E complex (Homo sapiens, UniProt P24941)
# experiment_summary: CDK2/Cyclin E fluorescence-based microfluidic mobility shift assay (CDK2 Biochemical Caliper Assay)
# conditions: read-out: Biochemical CDK2/CyclinE Caliper IC50
pIC50: −log10 of the molar value.
The following compounds are listed with their measured pIC50 values.

Some entries whose results are on file:
In [3]: df
Out[3]:
                                   compound                          target_or_system  measurement_kind  measured_result
0  COCc1cc2c(Nc3cc([C@@H]4C[C@H](Oc5nncn5C(C)(C)C)CO4)[nH]n3)nccn2n1  CDK2/Cyclin E complex (Homo sapiens, UniProt P24941)             pIC50           ≥ 7.00
1     Cc1cnnc(Nc2cc(C3CCCC3)[nH]n2)c1C(=O)O  CDK2/Cyclin E complex (Homo sapiens, UniProt P24941)             pIC50     4.00 to 6.00
2  COCc1cc(C(=O)Nc2cc([C@@H]3CC[C@@H](Cc4ncc(C)s4)C3)[nH]n2)n(C)n1 (single isomer, unassigned)  CDK2/Cyclin E complex (Homo sapiens, UniProt P24941)             pIC50     4.00 to 6.00
3  CC1(C)NC(=O)c2ccc(Nc3cc([C@H]4CC[C@@H](Oc5cccnc5)C4)[nH]n3)cc21 (single isomer, unassigned)  CDK2/Cyclin E complex (Homo sapiens, UniProt P24941)             pIC50           ≥ 7.00

Quote pIC50 reported for Cc1cc(CC(=O)Nc2cc([C@@H]3CC[C@@H](N(C)C(=O)NC(C)C)C3)[nH]n2)on1 (single isomer, unassigned) please.
4.00 to 6.00

Quote pIC50 reported for CC(C)NC(=O)O[C@H]1CC[C@@H](c2cc(Nc3ccsn3)n[nH]2)C1 (single isomer, unassigned) please.
4.00 to 6.00

Quote pIC50 reported for CC(C)NC(=O)N[C@@H]1CC[C@H](c2cc(Nc3ncccn3)n[nH]2)C1 (single isomer, unassigned) [Example 123] please.
4.00 to 6.00

Attribution: patent US20240190855A1
